- targetOfAssay: BCRP (BCRP-MDCKII monolayer) (Homo sapiens, UniProt Q9UNQ0)
- Construct: host or cells: MDCKII (canine kidney) cells
- Sequence (Q9UNQ0 whole entry): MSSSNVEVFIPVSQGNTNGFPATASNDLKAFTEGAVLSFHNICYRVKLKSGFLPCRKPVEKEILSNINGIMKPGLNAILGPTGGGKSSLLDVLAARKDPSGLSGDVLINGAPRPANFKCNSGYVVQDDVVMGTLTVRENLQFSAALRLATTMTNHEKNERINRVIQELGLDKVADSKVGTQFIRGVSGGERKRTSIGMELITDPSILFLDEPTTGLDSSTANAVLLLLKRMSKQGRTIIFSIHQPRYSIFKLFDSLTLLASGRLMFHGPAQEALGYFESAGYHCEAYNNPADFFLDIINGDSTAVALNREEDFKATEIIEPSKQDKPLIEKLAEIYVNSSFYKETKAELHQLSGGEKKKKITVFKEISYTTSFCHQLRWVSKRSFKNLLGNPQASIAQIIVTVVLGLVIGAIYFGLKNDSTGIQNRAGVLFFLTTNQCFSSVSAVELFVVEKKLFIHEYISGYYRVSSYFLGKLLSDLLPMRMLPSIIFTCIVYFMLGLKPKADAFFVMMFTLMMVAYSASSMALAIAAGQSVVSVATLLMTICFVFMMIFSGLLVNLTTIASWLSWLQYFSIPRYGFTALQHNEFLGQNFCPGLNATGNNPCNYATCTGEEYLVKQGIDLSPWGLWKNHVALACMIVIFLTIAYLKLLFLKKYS
- testName: MDCKII-BCRP bidirectional transport assay
- Type: in vitro ADME
Hi, to clarify the labels: yes covers MDCK-BCRP: Efflux Ratio from 3 upward, no covers anything below 3.

// known answers, use as guide
Cc1nc(-c2ccc(C)c(NC(=O)c3cnc4ccccn34)c2)no1 [Compound I-360]: no
COC(=O)N1CC(c2nc(-c3ccc(C)c(NC(=O)c4cnc5cc(OC[C@@H](C)O)ccn45)c3)no2)C1 [Compound I-263]: yes
Cc1ccc(-c2noc(C3CC(O)(c4ccccc4)C3)n2)cc1NC(=O)c1cnc2ccccn12 (stereo not shown) [Compound I-349]: no
Cc1ccc(-c2noc(C3CC4(COCCO4)C3)n2)cc1NC(=O)c1cnc2ccccn12 (stereo not shown) [Compound I-343]: no
Cc1ccc(-c2noc([C@H]3C[C@@H]3F)n2)cc1NC(=O)c1cnc2cc(Br)ccn12 [Compound I-383]: no
COC(=O)C1CC(c2nc(-c3ccc(C)c(NC(=O)c4cnc5ccccn45)c3)no2)C1 (stereo not shown) [Compound I-366]: no

Next, consider the following compound.
Asked: Hi team, for Cc1ccc(-c2noc(C3CCS(=O)(=O)N3)n2)cc1NC(=O)c1cnc2ccccn12 (racemic) [Compound I-330] , is the recorded MDCK-BCRP: Efflux Ratio at or above 3?
Given back: yes

---

- targetOfAssay: PDGFRα (Homo sapiens, UniProt P16234)
- Construct: purchased Millipore 14-467 (lot 26321_ACTI)
- Sequence (P16234 24-1089): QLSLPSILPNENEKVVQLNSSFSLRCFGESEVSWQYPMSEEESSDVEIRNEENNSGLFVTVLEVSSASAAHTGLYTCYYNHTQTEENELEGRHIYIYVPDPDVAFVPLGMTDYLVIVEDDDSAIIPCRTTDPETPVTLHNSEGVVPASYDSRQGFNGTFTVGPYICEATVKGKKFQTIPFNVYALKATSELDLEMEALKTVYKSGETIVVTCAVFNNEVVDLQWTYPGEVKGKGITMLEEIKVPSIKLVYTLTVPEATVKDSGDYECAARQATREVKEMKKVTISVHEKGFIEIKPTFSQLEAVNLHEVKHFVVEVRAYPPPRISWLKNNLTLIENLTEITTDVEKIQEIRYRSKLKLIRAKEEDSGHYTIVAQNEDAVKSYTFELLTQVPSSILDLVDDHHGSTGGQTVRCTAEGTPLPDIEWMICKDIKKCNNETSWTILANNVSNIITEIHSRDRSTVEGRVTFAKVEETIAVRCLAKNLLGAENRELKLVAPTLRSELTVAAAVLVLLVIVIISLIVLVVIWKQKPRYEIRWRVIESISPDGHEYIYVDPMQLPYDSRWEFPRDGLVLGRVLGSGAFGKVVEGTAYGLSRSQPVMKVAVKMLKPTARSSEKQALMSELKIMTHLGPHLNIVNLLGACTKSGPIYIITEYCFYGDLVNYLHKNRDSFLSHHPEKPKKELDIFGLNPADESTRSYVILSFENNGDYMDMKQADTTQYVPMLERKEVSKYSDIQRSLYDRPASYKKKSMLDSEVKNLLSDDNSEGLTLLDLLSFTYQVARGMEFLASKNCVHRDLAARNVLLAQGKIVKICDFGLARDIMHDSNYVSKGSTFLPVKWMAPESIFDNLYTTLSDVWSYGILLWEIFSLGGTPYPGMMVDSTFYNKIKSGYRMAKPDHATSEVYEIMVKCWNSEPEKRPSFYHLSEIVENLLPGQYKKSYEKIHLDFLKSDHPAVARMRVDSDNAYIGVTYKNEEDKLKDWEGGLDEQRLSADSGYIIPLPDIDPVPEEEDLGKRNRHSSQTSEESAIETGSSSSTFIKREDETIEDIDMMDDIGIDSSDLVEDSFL
- testName: Caliper biochemical assay, PDGFRα
- experimentalSetup: Table 6
pIC50: −log10 of the molar value.
Item-by-item account of pIC50

O=C(Nc1cc(-c2noc([C@@H]3CC(F)(F)CN3)n2)ccc1Cl)c1cnc2ccccn12: 4.52 to 5.30

Asked: Please respond with reported pIC50 (system PDGFRα (Homo sapiens, UniProt P16234)) for Cc1ccc(-c2noc([C@H]3C[C@@H]3F)n2)cc1NC(=O)c1cnc2ccc(F)cn12 .
Given back: 5.30 to 6.30

Asked: Please respond with reported pIC50 (system PDGFRα (Homo sapiens, UniProt P16234)) for Cc1ccc(-c2noc(C3CC(Oc4ccccc4)C3)n2)cc1NC(=O)c1cnc2ccccn12 (stereo not drawn) [Compound I-348] .
Given back: 5.30 to 6.30

Asked: Please respond with reported pIC50 (system PDGFRα (Homo sapiens, UniProt P16234)) for COC(=O)N1CC(c2nc(-c3ccc(C)c(NC(=O)c4cnn5ccc(Br)cc45)c3)no2)C1 .
Given back: 4.52 to 5.30

Asked: Please respond with reported pIC50 (system PDGFRα (Homo sapiens, UniProt P16234)) for Cc1nc(-c2ccc(C)c(NC(=O)c3cnc4ccc(N)cn34)c2)no1 .
Given back: 5.30 to 6.30

Asked: Please respond with reported pIC50 (system PDGFRα (Homo sapiens, UniProt P16234)) for COCCS(=O)(=O)N1CC[C@H]1c1nc(-c2ccc(C)c(NC(=O)c3cnc4ccccn34)c2)no1 .
Given back: 5.30 to 6.30

---

Item-by-item account of pIC50
- targetOfAssay: CSF-1R (Homo sapiens, UniProt P07333)
- Construct: purchased Invitrogen PV3249 (lot 662393N)
- Sequence (P07333 20-972): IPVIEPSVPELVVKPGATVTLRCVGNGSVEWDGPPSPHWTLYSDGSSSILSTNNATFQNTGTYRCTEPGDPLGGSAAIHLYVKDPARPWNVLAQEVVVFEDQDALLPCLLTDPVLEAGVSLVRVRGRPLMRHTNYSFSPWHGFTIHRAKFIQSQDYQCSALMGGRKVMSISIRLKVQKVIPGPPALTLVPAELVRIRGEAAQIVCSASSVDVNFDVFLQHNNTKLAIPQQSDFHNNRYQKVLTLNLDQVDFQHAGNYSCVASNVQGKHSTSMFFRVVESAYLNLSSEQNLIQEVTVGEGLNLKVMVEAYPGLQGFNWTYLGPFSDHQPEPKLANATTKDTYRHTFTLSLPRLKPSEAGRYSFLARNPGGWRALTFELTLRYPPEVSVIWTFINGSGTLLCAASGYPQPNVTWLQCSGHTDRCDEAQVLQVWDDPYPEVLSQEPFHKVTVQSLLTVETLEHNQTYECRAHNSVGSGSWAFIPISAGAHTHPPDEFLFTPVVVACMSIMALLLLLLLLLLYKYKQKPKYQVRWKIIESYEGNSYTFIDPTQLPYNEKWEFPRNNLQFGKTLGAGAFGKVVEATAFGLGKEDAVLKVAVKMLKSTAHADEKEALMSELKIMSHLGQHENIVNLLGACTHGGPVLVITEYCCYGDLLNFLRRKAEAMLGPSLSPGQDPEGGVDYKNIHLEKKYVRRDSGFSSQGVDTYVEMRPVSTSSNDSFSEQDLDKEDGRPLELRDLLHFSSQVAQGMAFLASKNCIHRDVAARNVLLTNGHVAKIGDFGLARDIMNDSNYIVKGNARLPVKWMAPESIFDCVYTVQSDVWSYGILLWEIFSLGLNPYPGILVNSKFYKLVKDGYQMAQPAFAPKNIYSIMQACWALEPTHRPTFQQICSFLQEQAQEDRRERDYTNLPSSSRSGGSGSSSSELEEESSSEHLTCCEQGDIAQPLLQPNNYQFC
- testName: Caliper biochemical assay, CSF-1R
- experimentalSetup: Table 6
pIC50: −log10 of the molar value.

COC(=O)N1CC(c2nc(-c3ccc(C)c(NC(=O)c4cnn5ccc(C#N)cc45)c3)no2)C1: 4.52 to 5.30
Cc1nc(-c2ccc(Cl)c(NC(=O)c3cnc4ccccn34)c2)no1: 6.30 to 7.30
Cc1ccc(-c2noc(C3CCN3S(C)(=O)=O)n2)cc1NC(=O)c1cnc2ccccn12 (racemic) [Compound I-356]: 6.30 to 7.30

--- query ---
Asked: Input Cc1ccc(-c2noc([C@H]3CCN3C3CCC3)n2)cc1NC(=O)c1cnc2ccccn12 , output reported pIC50.
Given back: ≥ 7.30

---

- testName: Three time point assay for plasma, brain and testes distribution after oral dosing
- Assay type: in vivo, rat
- experimentalSetup: male, SD, plasma, 10 mg/kg; rat, oral dosing, time point 2 h; read-out: Plasma concentration
measurementName: concentration at 2 h (ng/mL)
Quick note: give the figure in ng/mL, leave out the unit.

Asked: Input Cc1ccc(-c2noc([C@H]3C[C@@H]3F)n2)cc1NC(=O)c1cnc2cc(COCC(C)(C)O)ccn12 , output reported concentration at 2 h.
Given back: 3420

---

- targetOfAssay: wtKIT (Homo sapiens, UniProt P10721)
- Construct: 1888289AM in the reaction mixtures
- Sequence (P10721 26-976): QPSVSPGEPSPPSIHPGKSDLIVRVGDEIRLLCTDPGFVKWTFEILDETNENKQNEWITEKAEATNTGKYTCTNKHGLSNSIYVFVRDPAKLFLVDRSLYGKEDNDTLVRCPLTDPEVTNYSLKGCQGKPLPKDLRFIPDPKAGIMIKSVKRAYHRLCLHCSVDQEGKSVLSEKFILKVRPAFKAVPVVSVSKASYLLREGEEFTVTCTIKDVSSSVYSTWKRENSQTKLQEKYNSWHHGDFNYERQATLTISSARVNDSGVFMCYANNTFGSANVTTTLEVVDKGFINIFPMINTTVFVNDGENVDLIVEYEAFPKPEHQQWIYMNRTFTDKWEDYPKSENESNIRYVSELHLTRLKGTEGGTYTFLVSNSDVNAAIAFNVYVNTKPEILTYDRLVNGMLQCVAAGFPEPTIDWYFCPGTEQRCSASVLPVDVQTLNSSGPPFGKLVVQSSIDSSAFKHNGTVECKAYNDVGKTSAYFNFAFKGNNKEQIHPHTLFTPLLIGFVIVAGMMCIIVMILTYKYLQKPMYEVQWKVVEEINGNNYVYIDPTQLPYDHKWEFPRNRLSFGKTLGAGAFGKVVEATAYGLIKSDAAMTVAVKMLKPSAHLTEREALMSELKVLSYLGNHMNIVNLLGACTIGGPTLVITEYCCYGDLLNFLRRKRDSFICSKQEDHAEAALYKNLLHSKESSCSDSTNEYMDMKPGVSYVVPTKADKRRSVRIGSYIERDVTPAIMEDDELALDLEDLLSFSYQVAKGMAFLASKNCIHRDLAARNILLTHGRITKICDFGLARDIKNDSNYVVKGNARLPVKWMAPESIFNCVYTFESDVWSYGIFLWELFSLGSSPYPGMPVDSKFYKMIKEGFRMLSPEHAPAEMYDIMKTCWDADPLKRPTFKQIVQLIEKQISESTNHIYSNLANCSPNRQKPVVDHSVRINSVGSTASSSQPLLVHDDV
- testName: Caliper biochemical assay, wtKIT
- experimentalSetup: Table 6, read-out: KIT Biochemical IC50 avg
Item-by-item account of IC50

Consider the worked cases shown below.
CC(C)(C)OC(=O)N1CC(c2nc(-c3ccc(Cl)c(NC(=O)c4cnc5ccccn45)c3)no2)C1: ≤ 50 nM
Cc1ccc(-c2noc([C@H]3CCN3C(C)C)n2)cc1NC(=O)c1cnc2ccccn12: ≤ 50 nM
Cc1ccc(-c2noc(C3CCC3F)n2)cc1NC(=O)c1cnc2ccccn12 (racemic) [Compound I-376]: ≤ 50 nM

Asked: Input Cc1nc(-c2ccc(C)c(NC(=O)c3cnc4ccc(N(C)C)cn34)c2)no1 , output reported IC50.
Given back: ≤ 50 nM

Asked: Input Cc1ccc(-c2noc([C@@H]3CC(=O)N3)n2)cc1NC(=O)c1cnc2ccccn12 (racemic) , output reported IC50.
Given back: ≤ 50 nM

Asked: Input Cc1ccc(-c2noc(C3CCCCN3S(C)(=O)=O)n2)cc1NC(=O)c1cnc2ccccn12 (racemic) , output reported IC50.
Given back: 50 to 500 nM

Asked: Input CCOC1CC(c2nc(-c3ccc(C)c(NC(=O)c4cnc5ccccn45)c3)no2)C1 (stereo not shown) [Compound I-310] , output reported IC50.
Given back: 50 to 500 nM

---

- targetOfAssay: MDR1 (MDR1-MDCKII cells) (Homo sapiens, UniProt P08183)
- Construct: host or cells: MDCKII (canine kidney) cells
- Sequence (P08183 whole entry): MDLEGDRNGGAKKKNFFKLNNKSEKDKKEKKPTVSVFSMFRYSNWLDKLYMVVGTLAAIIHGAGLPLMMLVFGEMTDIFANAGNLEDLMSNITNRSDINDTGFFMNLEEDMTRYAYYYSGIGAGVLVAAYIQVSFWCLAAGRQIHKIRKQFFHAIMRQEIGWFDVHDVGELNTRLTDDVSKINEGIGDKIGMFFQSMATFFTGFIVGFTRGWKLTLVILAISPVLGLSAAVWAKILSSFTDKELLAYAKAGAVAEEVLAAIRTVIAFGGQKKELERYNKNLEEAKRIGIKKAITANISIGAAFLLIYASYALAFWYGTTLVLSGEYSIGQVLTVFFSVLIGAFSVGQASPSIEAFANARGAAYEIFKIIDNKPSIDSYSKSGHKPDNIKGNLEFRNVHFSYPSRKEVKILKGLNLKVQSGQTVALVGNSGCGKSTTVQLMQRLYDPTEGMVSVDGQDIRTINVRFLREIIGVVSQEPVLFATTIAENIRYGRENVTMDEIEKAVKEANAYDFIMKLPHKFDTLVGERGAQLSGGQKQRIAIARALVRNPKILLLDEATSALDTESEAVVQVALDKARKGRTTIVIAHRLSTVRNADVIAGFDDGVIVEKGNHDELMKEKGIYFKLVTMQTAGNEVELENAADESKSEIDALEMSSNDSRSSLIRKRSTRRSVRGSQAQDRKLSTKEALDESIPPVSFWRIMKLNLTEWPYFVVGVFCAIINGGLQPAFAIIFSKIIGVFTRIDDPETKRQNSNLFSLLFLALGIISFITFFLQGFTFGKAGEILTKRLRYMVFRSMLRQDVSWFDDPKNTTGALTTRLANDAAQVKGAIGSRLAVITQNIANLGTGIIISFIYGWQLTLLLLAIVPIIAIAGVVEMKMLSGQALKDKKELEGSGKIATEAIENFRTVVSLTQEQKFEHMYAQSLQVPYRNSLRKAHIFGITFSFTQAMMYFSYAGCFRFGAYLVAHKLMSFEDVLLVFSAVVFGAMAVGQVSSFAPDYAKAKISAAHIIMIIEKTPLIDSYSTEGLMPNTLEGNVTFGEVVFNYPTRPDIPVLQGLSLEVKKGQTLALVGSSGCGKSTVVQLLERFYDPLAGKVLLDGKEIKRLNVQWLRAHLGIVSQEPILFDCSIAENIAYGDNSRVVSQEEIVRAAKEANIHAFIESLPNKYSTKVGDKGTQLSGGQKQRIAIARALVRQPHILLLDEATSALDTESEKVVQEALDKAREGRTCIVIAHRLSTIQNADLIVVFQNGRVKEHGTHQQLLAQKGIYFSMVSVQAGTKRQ
- testName: Permeability in MDR1-MDCKII cells
- Assay type: in vitro ADME
- experimentalSetup: MDCKII-MDR1, apical to basolateral
measurementName: MDCKII-MDR1: Papp A-B

Cc1ccc(-c2noc(CC(O)C(F)F)n2)cc1NC(=O)c1cnc2ccccn12 (centres unmarked): 7.8 10^−6 cm/s
Cc1ccc(-c2noc(C3COC3)n2)cc1NC(=O)c1cnc2ccccn12: 22 10^−6 cm/s
Cc1ccc(-c2noc(C(C)NS(C)(=O)=O)n2)cc1NC(=O)c1cnc2ccccn12 (single isomer, unassigned): 1.43 10^−6 cm/s
Cc1ccc(-c2noc(C3(N)CC4(CC(F)(F)C4)C3)n2)cc1NC(=O)c1cnc2ccccn12: 8.84 10^−6 cm/s

Asked: Input Cc1ccc(-c2noc(C3CCN3)n2)cc1NC(=O)c1cnc2ccccn12 (racemic) , output reported MDCKII-MDR1: Papp A-B.
Given back: 6.21 10^−6 cm/s

Asked: Input Cc1nc(-c2ccc(Cl)c(NC(=O)c3cnc4ccccn34)c2)no1 , output reported MDCKII-MDR1: Papp A-B.
Given back: 22.7 10^−6 cm/s

Asked: Input Cc1ccc(-c2noc([C@H](C)O)n2)cc1NC(=O)c1cnc2ccccn12 , output reported MDCKII-MDR1: Papp A-B.
Given back: 18.5 10^−6 cm/s

Asked: Input Cc1ccc(-c2noc([C@H]3CCC(=O)N3)n2)cc1NC(=O)c1cnc2ccccn12 (racemic) , output reported MDCKII-MDR1: Papp A-B.
Given back: 0.78 10^−6 cm/s

---

- targetOfAssay: PDGFRα (Homo sapiens)
- Construct: purchased Millipore 14-467 (lot 26321_ACTI)
- testName: HTRF biochemical assay, PDGFRα
- experimentalSetup: Table 4, read-out: PDFGRα Biochemical IC50 avg
pIC50: −log10 of the molar value.
measurementName: pIC50

Consider the worked cases shown below.
Cc1ccc(-c2noc([C@H]3C[C@@H]3F)n2)cc1NC(=O)c1cnc2ccc(C3CNC3)cn12: 6.30 to 7.30
COc1ccn2c(C(=O)Nc3cc(-c4noc(C[C@H](C)O)n4)ccc3C)cnc2c1: 6.30 to 7.30

Asked: Input Cc1ccc(-c2noc(C(O)C3CCC3)n2)cc1NC(=O)c1cnc2ccccn12 (racemic) , output reported pIC50.
Given back: 6.30 to 7.30

Asked: Input COC(=O)N1CC(c2nc(-c3ccc(C)c(NC(=O)c4cnc5cc(CO)ccn45)c3)no2)C1 , output reported pIC50.
Given back: 4.52 to 5.30

---

- testName: Three time point assay for plasma, brain and testes distribution after oral dosing
- Type: in vivo, rat
- experimentalSetup: rat, oral dosing, time point 0.5 h
Item-by-item account of Testes concentration
Quick note: give the figure in ng/g, leave out the unit.

Asked: Input Cc1ccc(-c2noc([C@H]3C[C@@H]3F)n2)cc1NC(=O)c1cnc2cc(OC(C)C)ccn12 , output reported Testes concentration.
Given back: 480

Asked: Input Cc1ccc(-c2noc(CC(O)C(F)F)n2)cc1NC(=O)c1cnc2ccccn12 (stereo not shown) , output reported Testes concentration.
Given back: 256

Asked: Input Cc1ccc(-c2noc([C@H]3C[C@@H]3F)n2)cc1NC(=O)c1cnc2cc(OC(F)(F)F)ccn12 , output reported Testes concentration.
Given back: 159

Asked: Input COc1ccn2c(C(=O)Nc3cc(-c4noc(CC(O)C(F)F)n4)ccc3C)cnc2c1 (single isomer, unassigned) , output reported Testes concentration.
Given back: 123
